For reference, Ki measured on UniProt P50247:
Numbers only, in nM.

Nc1ncnc2c1ncn2[C@@H]1C=C(CO)[C@@H](O)[C@H]1O [NEOPLANOCIN A]	3

Proceed to the following item.
## Input Returns the measured Ki for the input compound. Input: Nc1ncnc2c1ncn2C1CC(O)C(O)C1O (racemic)
## Output 11.1

----------
species: Homo sapiens; assay: Inhibitory concentration on human T-lymphocyte Molt4 (clone 8) cells; type: functional, cell-based; conditions: MOLT-4
assay_endpoint: IC50
Answer as a quantity: numeral, then unit.

Nc1ncnc2c1ncn2[C@H]1C[C@@H](O)[C@H](O)[C@@H]1O	4.65 µM

## Input Returns the measured IC50 for the input molecule. Input: Nc1ncnc2c1ncn2[C@@H]1C[C@H](O)[C@@H](O)[C@H]1O [NORARISTEROMYCIN]
## Output 0.39 µM

Reference source for all entries: ChEMBL document CHEMBL1127333
